Experimental target: T1, human EphA7 (Homo sapiens, UniProt Q15375)
T1 construct: a protein of the extracellular region of each human Eph receptor fused with the SEAP protein and the His tag; made in house; host or cells: Expi293F cells (culture supernatant)
T1 sequence (Q15375 28-555 limits assumed): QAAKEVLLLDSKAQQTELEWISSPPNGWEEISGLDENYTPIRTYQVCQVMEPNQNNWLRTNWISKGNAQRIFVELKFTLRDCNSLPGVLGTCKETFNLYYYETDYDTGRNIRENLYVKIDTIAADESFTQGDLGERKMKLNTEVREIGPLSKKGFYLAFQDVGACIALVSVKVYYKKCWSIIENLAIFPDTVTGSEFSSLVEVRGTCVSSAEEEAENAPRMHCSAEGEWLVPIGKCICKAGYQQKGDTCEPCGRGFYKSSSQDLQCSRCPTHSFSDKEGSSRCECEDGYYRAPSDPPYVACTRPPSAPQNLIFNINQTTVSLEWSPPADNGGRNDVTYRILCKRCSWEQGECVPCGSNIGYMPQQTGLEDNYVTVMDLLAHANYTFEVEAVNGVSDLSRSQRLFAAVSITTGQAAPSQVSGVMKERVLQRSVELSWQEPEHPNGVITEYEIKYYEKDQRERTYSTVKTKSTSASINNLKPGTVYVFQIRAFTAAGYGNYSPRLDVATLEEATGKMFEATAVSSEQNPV
Assay remarks: Selectivity ELISA of humanized antibodies for human Eph receptor
Assay type: binding
Cond: coated protein 1 nM
So I've got a bunch of molecules here, and I need their hEphA7-SEAP-: absorbance at 450 nm, percentage with respect to hEphA4-SEAP-His as 100% values.
Don't forget the unit after the value.

Consider the following illustrative entries.
159 (antibody, V domains shown, synthetic humanized antibody heavy chain variable region sequence; synthetic humanized antibody light chain variable region sequence) VH: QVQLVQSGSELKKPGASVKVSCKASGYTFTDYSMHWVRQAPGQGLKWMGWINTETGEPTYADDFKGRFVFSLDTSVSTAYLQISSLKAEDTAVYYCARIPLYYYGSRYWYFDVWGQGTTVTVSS VL: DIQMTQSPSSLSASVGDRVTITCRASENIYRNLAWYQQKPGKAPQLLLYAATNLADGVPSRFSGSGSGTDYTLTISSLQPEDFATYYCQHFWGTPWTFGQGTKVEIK    5.5%
140 (antibody, V domains shown, synthetic humanized antibody heavy chain variable region sequence; synthetic humanized antibody light chain variable region sequence) VH: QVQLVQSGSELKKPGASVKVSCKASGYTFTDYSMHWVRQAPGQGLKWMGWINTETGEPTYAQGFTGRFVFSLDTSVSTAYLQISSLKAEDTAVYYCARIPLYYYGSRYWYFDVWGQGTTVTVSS VL: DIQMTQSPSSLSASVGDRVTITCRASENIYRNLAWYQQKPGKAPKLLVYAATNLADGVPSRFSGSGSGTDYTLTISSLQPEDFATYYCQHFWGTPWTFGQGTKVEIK    5.2%
132 (antibody, V domains shown, synthetic humanized antibody heavy chain variable region sequence; synthetic humanized antibody light chain variable region sequence) VH: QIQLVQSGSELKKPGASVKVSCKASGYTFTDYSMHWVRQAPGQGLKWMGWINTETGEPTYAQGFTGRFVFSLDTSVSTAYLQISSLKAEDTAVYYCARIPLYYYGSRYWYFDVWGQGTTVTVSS VL: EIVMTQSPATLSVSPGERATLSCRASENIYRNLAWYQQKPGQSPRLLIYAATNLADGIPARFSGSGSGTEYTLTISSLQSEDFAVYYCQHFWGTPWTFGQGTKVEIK    4.5%

Continue with the molecule presented below.
Annotate the molecule 69 (antibody, V domains shown, synthetic humanized antibody heavy chain variable region sequence; synthetic humanized antibody light chain variable region sequence) VH: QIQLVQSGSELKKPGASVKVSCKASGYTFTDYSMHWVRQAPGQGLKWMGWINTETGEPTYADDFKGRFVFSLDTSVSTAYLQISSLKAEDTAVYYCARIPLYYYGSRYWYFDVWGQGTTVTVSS VL: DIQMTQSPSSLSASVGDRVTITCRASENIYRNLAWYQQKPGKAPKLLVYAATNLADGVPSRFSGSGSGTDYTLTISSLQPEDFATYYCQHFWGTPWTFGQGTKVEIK with its measured hEphA7-SEAP-: absorbance at 450 nm, percentage with respect to hEphA4-SEAP-His as 100%.
5.3%

Values from patent US10428140B2
